Test system: Burkholderia cepacia
Test: MIC/MBC of nanoemulsions against gram-negative isolates (CLSI, alamar blue)
Format: cell-based
Conditions: Burkholderia cepacia (n = 5); nanoemulsions in the presence of 5 mM EDTA
measured quantity: MIC50 (µg/mL)

C[C@@H](O)[C@H]1C(=O)N2C(C(=O)O)=C(SCCN=CN)C[C@H]12    8
C[C@H]1COc2c(N3CCN(C)CC3)c(F)cc3c(=O)c(C(=O)O)cn1c23    2
CC(C)(O/N=C(\C(=O)N[C@@H]1C(=O)N2C(C(=O)[O-])=C(C[n+]3ccccc3)CS[C@H]12)c1csc(N)n1)C(=O)O    2
CO/N=C(\C(=O)N[C@@H]1C(=O)N2C(C(=O)[O-])=C(C[N+]3(C)CCCC3)CS[C@H]12)c1csc(N)n1 [Cefepime]    8
